# assayed-target: human recombinant histamine H2 receptor (Homo sapiens, UniProt P25021)
# Construct: expressed in transfected cells; host or cells: CHO-K1 cells
# Sequence (P25021 whole entry): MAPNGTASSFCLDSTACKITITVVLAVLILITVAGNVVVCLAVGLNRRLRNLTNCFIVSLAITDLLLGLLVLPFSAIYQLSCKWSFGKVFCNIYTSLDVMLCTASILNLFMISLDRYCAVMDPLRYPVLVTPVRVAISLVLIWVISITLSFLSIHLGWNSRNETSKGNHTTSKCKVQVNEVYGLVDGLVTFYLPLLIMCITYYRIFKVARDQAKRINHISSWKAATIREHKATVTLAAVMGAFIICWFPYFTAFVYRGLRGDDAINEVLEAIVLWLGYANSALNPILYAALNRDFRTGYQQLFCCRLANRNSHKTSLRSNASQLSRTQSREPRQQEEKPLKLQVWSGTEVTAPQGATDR
# procedure-text: Histamine H2 radioligand binding ([125I]aminopotentidine)
# condition-parameters: compound at 1 μM; CHO K1 cells; read-out: Histamine Binding (1 μM) H2, percent inhibition of specific binding
Label Fulfilled when inhibition at 1 µM is at or above 20%; otherwise label Not fulfilled.

smiles-record: CCCCOC(=O)Cn1c2c(c3cc(Cl)ccc31)CN(C)CC2
label-class: Fulfilled

Prompt: Form field: inhibition at 1 µM at least 20%? Entry: Cc1ccc2c(c1)c1c(n2CCC(=O)Nc2ccccc2)CCN(C)C1
Completion: Fulfilled

Prompt: Form field: inhibition at 1 µM at least 20%? Entry: CCOC(=O)CCn1c2c(c3cc(C)ccc31)CN(C)CC2
Completion: Fulfilled

Prompt: Form field: inhibition at 1 µM at least 20%? Entry: CN1CCc2c(c3cc(Cl)ccc3n2CC(N)=O)C1
Completion: Not fulfilled

Prompt: Form field: inhibition at 1 µM at least 20%? Entry: Cc1ccc2c(c1)c1c(n2CCC(=O)NC(C)C)CCN(C)C1
Completion: Not fulfilled

Prompt: Form field: inhibition at 1 µM at least 20%? Entry: CN1CCc2c(c3cc(Cl)ccc3n2CCC(=O)OCC2CCCCC2)C1
Completion: Fulfilled

Prompt: Form field: inhibition at 1 µM at least 20%? Entry: CCOC(=O)CCCn1c2c(c3cc(C)ccc31)CN(C)CC2
Completion: Fulfilled

Prompt: Form field: inhibition at 1 µM at least 20%? Entry: CN1CCc2c(c3cc(Cl)ccc3n2CC(=O)NC2CCCCC2)C1
Completion: Not fulfilled

Prompt: Form field: inhibition at 1 µM at least 20%? Entry: CCNC(=O)Cn1c2c(c3cc(C)ccc31)CN(C)CC2
Completion: Not fulfilled

----------
# assayed-target: human recombinant adrenergic α2A receptor (Homo sapiens, UniProt P08913)
# Construct: expressed in transfected cells; host or cells: insect Sf9 cells
# Sequence (P08913 whole entry): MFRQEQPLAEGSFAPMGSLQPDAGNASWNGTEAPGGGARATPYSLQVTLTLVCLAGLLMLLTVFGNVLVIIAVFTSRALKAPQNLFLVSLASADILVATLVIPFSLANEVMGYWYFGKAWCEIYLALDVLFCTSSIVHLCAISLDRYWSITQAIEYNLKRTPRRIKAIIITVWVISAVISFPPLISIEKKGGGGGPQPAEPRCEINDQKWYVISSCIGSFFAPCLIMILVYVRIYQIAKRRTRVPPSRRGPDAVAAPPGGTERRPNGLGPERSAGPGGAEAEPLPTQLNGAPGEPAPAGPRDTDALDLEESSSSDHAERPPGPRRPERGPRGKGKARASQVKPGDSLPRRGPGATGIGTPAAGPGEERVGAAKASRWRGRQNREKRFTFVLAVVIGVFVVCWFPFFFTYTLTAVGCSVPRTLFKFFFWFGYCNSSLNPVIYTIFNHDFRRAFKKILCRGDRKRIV
# procedure-text: Adrenergic α2A radioligand binding ([3H]MK-912)
# condition-parameters: compound at 1 μM; insect Sf9 cells; read-out: Adrenergic (1 μM) α2A, percent inhibition of specific binding
measured-parameter: inhibition at 1 µM
Please state the value followed by its unit.

molecule: CCOC(=O)CCn1c2c(c3cc(Cl)ccc31)CN(C)CC2 [CD17]
endpoint-value: 87%

molecule: Cc1ccc2c(c1)c1c(n2CCNC(=O)C2CCCNC2)CCN(C)C1 (centres unmarked) [Compound 9]
endpoint-value: 20%

molecule: CN1CCc2c(c3cc(Cl)ccc3n2CCC(=O)OCC2CCCCC2)C1 [Compound 20]
endpoint-value: 95%

molecule: CCOC(=O)Cn1c2c(c3cc(C)ccc31)CN(C)CC2 [CD57]
endpoint-value: 45%

molecule: CN1CCc2c(c3cc(Cl)ccc3n2CC(=O)O)C1 [CD46]
endpoint-value: 13%

molecule: Cc1ccc2c(c1)c1c(n2C2CCCCC2O)CCN(C)C1 (centres unmarked) [Compound 73]
endpoint-value: 11%

molecule: CN1CCc2c(c3cc(Cl)ccc3n2CCC#N)C1 [CD94]
endpoint-value: 73%

molecule: CN1CCc2c(c3cc(Cl)ccc3n2CCC(=O)O)C1 [CD55]
endpoint-value: -2%

// Cc1ccc2c(c1)c1c(n2CCC(=O)NC2CCCC2)CCN(C)C1 [Compound 4] : inhibition at 1 µM value = 45%

// CC(C)OC(=O)CCn1c2c(c3cc(Cl)ccc31)CN(C)CC2 [Compound 17] : inhibition at 1 µM value = 90%
